# Tested on: Spodoptera frugiperda
# test: Lethal concentration required for 50% mortality in Fall armyworm
# Type: functional
A collection of molecules and their measured LC50
property.name: LC50 (µg/mL)

INSERT INTO assay_data (chemical_smiles, value_reported) VALUES
  ('CC(C)NC(=O)c1cccc(Cl)c1NC(=O)c1cc(C(F)(F)F)nn1-c1ncccc1Cl', 0.1),
  ('Cc1cc(C(F)(F)F)ccc1C(=O)Nc1cccc(C)c1C(=O)NC(C)C', 77),
  ('Cc1cccc(C(=O)NC(C)C)c1NC(=O)c1ccc(C(F)(F)F)nc1C(C)C', 9.6),
  ('Cc1cc(C(F)(F)F)ccc1C(=O)Nc1ccccc1C(=O)NC(C)C', 27.3);

----------
# Test system: Spodoptera frugiperda
# test: Lethal concentration required for 50% mortality in Fall armyworm
# Assay type: functional
property.name: LC50 (µg/mL)

INSERT INTO results (compound, bound_sign, value_reported) VALUES
  ('Cc1cccc(C(=O)NC(C)C)c1NC(=O)c1cnc(C(F)(F)F)nc1C', '=', 11.6),
  ('Cc1cccc(C(=O)NC(C)C)c1NC(=O)c1ccc(C(F)(F)F)nc1C', '=', 20.7),
  ('Cc1cccc(C(=O)NC(C)C)c1NC(=O)c1cc(C(F)(F)F)nn1-c1ncccc1Cl', '=', 0.1),
  ('CCNC(=O)c1cccc(C)c1NC(=O)c1ccc(C(F)(F)F)cc1C', '=', 32.8),
  ('COC(=O)N(C(=O)N1CO[C@@]2(C(=O)OC)Cc3cc(Cl)ccc3C2=N1)c1ccc(OC(F)(F)F)cc1', '=', 0.5),
  ('CC(C)NC(=O)c1cccc(Cl)c1NC(=O)c1cc(C(F)(F)F)nn1-c1ccccc1Cl', '=', 0.1),
  ('CNC(=O)c1cccc(C)c1NC(=O)c1ccc(C(F)(F)F)cc1C', '=', 60.1),
  ('CCc1nc(C(F)(F)F)ncc1C(=O)Nc1c(C)cccc1C(=O)NC(C)C', '=', 9),
  ('Cc1cccc(C(=O)NC(C)C)c1NC(=O)c1cnc(C(F)(F)F)nc1C(C)C', '=', 9.8),
  ('Cc1cc(C(F)(F)F)ccc1C(=O)Nc1c(C)cccc1C(=O)NC(C)C', '=', 20.7),
  ('Cc1cccc(C(=O)NC(C)C)c1NC(=O)c1cc(C(F)(F)F)nn1C(C)C', '=', 11.1),
  ('Cc1cccc(C(=O)NC(C)C)c1NC(=O)c1cc(C(F)(F)F)nn1-c1ccccc1Cl', '=', 0.05),
  ('Cc1cccc(C(=O)NC(C)C)c1NC(=O)c1ccc(C(F)(F)F)cc1', '=', 16.9),
  ('CCn1nc(C(F)(F)F)cc1C(=O)Nc1c(C)cccc1C(=O)NC(C)C', '=', 34.8),
  ('Cc1cccc(C(=O)NC(C)C)c1NC(=O)c1cc(C(F)(F)F)nn1-c1ccccc1', '=', 26),
  ('Cc1cccc(C(=O)NC(C)C)c1NC(=O)c1cc(C(F)(F)F)nn1-c1ccc(Cl)cc1', '>', 500),
  ('Cc1cccc(C(=O)NC(C)C)c1NC(=O)c1cc(C(F)(F)F)nn1-c1cccc(Cl)c1', '>', 500),
  ('CCc1nc(C(F)(F)F)ccc1C(=O)Nc1c(C)cccc1C(=O)NC(C)C', '=', 9.7),
  ('CC1(C)C(C=C(Cl)Cl)C1C(=O)OC(C#N)c1cccc(Oc2ccccc2)c1 (stereo not given)', '=', 2.1),
  ('Cc1cccc(C(=O)NC(C)C)c1NC(=O)c1cc(C(F)(F)F)nn1C', '=', 29.6);

----------
# System: Periplaneta americana
# test: Ability to release internal calcium stores mediated by ryanodine receptor without activation of voltage-gated calcium channel of cockroach in CMT assay
# Assay type: functional
A collection of compounds and their measured CMT
property.name: CMT

INSERT INTO measurements (chemical_smiles, value_reported) VALUES
  ('Cc1cc(Cl)cc(C(=O)NC(C)C)c1NC(=O)c1cc(C(F)(F)F)nn1-c1ncccc1Cl', '0.1 µM'),
  ('Cc1cccc(C(=O)NC(C)C)c1NC(=O)c1cnc(C(F)(F)F)nc1C(C)C', '26.6 µM'),
  ('Cc1cc(C(F)(F)F)ccc1C(=O)Nc1ccccc1C(=O)NC(C)C', '39.3 µM'),
  ('CC(C)NC(=O)c1cccc(Cl)c1NC(=O)c1cc(C(F)(F)F)nn1-c1ccccc1Cl', '0.3 µM'),
  ('Cc1cccc(C(=O)NC(C)C)c1NC(=O)c1cc(C(F)(F)F)nn1C', '120 µM'),
  ('Cc1cccc(C(=O)NC(C)C)c1NC(=O)c1cc(C(F)(F)F)nn1-c1ccccc1Cl', '0.2 µM'),
  ('CCc1nc(C(F)(F)F)ccc1C(=O)Nc1c(C)cccc1C(=O)NC(C)C', '20.6 µM'),
  ('Cc1cccc(C(=O)NC(C)C)c1NC(=O)c1cc(C(F)(F)F)nn1-c1ncccc1Cl', '0.3 µM');

----------
# Test system: Heliothis virescens
# test: Lethal concentration required for 50% mortality in Tobacco budworm
# Assay type: functional
A collection of compounds and their measured LC50
property.name: LC50 (µg/mL)

INSERT INTO measurements (chemical_smiles, property_name, bound_sign, value_reported) VALUES
  ('CC(C)NC(=O)c1cccc(Cl)c1NC(=O)c1cc(C(F)(F)F)nn1-c1ncccc1Cl', 'LC50', '=', 0.4),
  ('Cc1cc(C(F)(F)F)ccc1C(=O)Nc1cccc(C)c1C(=O)NC(C)C', 'LC50', '>', 500),
  ('CCn1nc(C(F)(F)F)cc1C(=O)Nc1c(C)cccc1C(=O)NC(C)C', 'LC50', '=', 158),
  ('Cc1cccc(C(=O)NC(C)C)c1NC(=O)c1cc(C(F)(F)F)nn1-c1ccccc1', 'LC50', '=', 354),
  ('Cc1cccc(C(=O)NC(C)C)c1NC(=O)c1cc(C(F)(F)F)nn1C', 'LC50', '=', 130);

----------
# Tested on: Heliothis virescens
# test: Lethal concentration required for 50% mortality in Tobacco budworm
# Type: functional
property.name: log10 of LC50 (log10 of the value in µg/mL)

INSERT INTO measurements (molecule, value_reported) VALUES
  ('CC(C)NC(=O)c1cccc(Cl)c1NC(=O)c1cc(C(F)(F)F)nn1-c1ccccc1Cl', 0.48),
  ('Cc1cccc(C(=O)NC(C)C)c1NC(=O)c1cnc(C(F)(F)F)nc1C(C)C', 1.63),
  ('COC(=O)N(C(=O)N1CO[C@@]2(C(=O)OC)Cc3cc(Cl)ccc3C2=N1)c1ccc(OC(F)(F)F)cc1', 0.18),
  ('Cc1cc(Cl)cc(C(=O)NC(C)C)c1NC(=O)c1cc(C(F)(F)F)nn1-c1ncccc1Cl', -1.70),
  ('CCc1nc(C(F)(F)F)ccc1C(=O)Nc1c(C)cccc1C(=O)NC(C)C', 1.89),
  ('Cc1cc(C(F)(F)F)ccc1C(=O)Nc1c(C)cccc1C(=O)NC(C)C', 2.41),
  ('Cc1cccc(C(=O)NC(C)C)c1NC(=O)c1ccc(C(F)(F)F)nc1C(C)C', 1.74),
  ('Cc1cccc(C(=O)NC(C)C)c1NC(=O)c1cc(C(F)(F)F)nn1-c1ccccc1Cl', 0.53),
  ('CCc1nc(C(F)(F)F)ncc1C(=O)Nc1c(C)cccc1C(=O)NC(C)C', 1.61),
  ('Cc1cccc(C(=O)NC(C)C)c1NC(=O)c1cc(C(F)(F)F)nn1-c1ncccc1Cl', -0.40),
  ('CC1(C)C(C=C(Cl)Cl)C1C(=O)OC(C#N)c1cccc(Oc2ccccc2)c1 (stereo not given)', 1.13),
  ('Cc1cccc(C(=O)NC(C)C)c1NC(=O)c1cc(C(F)(F)F)nn1C(C)C', 1.56),
  ('Cc1cccc(C(=O)NC(C)C)c1NC(=O)c1cnc(C(F)(F)F)nc1C', 2.01),
  ('Cc1cccc(C(=O)NC(C)C)c1NC(=O)c1ccc(C(F)(F)F)nc1C', 2.51);
